Molecular target: hMC4-R (Homo sapiens, UniProt P32245)
Construct: expressed in transfected cells; host or cells: CHO-K1
Sequence (P32245 whole entry): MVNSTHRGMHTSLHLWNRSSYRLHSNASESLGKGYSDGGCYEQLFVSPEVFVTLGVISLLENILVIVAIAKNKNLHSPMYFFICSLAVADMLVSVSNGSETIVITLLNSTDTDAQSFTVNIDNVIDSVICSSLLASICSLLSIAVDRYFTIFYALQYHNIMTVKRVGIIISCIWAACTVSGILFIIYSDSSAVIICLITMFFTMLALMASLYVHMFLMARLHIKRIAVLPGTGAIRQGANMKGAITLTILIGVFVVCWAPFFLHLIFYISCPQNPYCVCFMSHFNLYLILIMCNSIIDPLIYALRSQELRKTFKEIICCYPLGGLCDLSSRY
Assay: cyclic AMP bioassay (ECL) in CHO-K1 cells
Format: cell-based
Settings: Table 9A/9B; read-out: EC50 hMC4-R
pEC50: −log10 of the molar value. Bridge positions count the residues as written; N and C are the ends. Square brackets hold non-standard residues; d marks the D form. Peptide text beside a SMILES is read from it. Bta = N[C@@H](Cc1csc2ccccc12)C(=O)O; Nle = CCCC[C@H](N)C(=O)O; Ava = NCCCCC(=O)O; GABA = NCCCC(=O)O
// reported pEC50 for each item listed
recorded-metric: pEC50

1) CCCC[C@H](NC(C)=O)C(=O)N[C@H]1CSSC[C@@H](C(N)=O)NC(=O)CCCCNC(=O)[C@H](Cc2c[nH]c3ccccc23)NC(=O)[C@H](CCCNC(=N)N)NC(=O)[C@@H](Cc2ccccc2)NC(=O)[C@H](Cc2c[nH]cn2)NC1=O (Ac-[Nle]CH[dF]RW[Ava]C-NH2; disulfide 2-8) = 10.31
2) CCCC[C@H](NC(C)=O)C(=O)N[C@H]1CC(=O)NCCCC[C@@H](C(N)=O)NC(=O)[C@H](Cc2csc3ccccc23)NC(=O)[C@H](CCCNC(=N)N)NC(=O)[C@@H](Cc2ccccc2)NC(=O)[C@H](Cc2c[nH]cn2)NC(=O)[C@@H](C)NC1=O (Ac-[Nle]D[dA]H[dF]R[Bta]K-NH2; lactam 2-8) = 8.78
3) CCCC[C@H](N)C(=O)N[C@H]1CSSC[C@@H](C(N)=O)NC(=O)CCCNC(=O)[C@H](Cc2c[nH]c3ccccc23)NC(=O)[C@H](CCCNC(=N)N)NC(=O)[C@@H](Cc2ccccc2)NC(=O)[C@H](Cc2c[nH]cn2)NC1=O (H-[Nle]CH[dF]RW[GABA]C-NH2; disulfide 2-8) = 10.68
4) CC(=O)N[C@H](CCCNC(=N)N)C(=O)N[C@H]1CC(=O)NCCCC[C@@H](C(N)=O)NC(=O)[C@H](C)NC(=O)[C@H](Cc2c[nH]c3ccccc23)NC(=O)[C@H](CCCNC(=N)N)NC(=O)[C@@H](Cc2ccccc2)NC(=O)[C@H](Cc2c[nH]cn2)NC1=O = 10.11

* * *

Molecular target: hMC1-R (Homo sapiens, UniProt Q01726)
Construct: expressed in transfected cells; host or cells: CHO-K1
Sequence (Q01726 whole entry): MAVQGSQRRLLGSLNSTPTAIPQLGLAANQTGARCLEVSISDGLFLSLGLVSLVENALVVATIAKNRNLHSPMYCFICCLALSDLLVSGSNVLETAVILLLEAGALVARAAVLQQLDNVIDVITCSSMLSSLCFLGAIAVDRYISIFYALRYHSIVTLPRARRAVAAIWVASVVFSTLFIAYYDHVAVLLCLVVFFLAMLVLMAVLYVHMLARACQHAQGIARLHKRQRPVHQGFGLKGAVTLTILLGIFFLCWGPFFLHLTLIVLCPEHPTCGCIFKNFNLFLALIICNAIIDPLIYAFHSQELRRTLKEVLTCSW
Assay: cyclic AMP bioassay (ECL) in CHO-K1 cells
Assay type: cell-based
Conditions: Table 9A/9B; read-out: EC50 hMC1-R
Bridge positions count the residues as written; N and C are the ends. Square brackets hold non-standard residues; d marks the D form. Peptide text beside a SMILES is read from it. hArg = N=C(N)NCCCC[C@H](N)C(=O)O; Pen = CC(C)(S)[C@H](N)C(=O)O; Nle = CCCC[C@H](N)C(=O)O; Ava = NCCCCC(=O)O; GABA = NCCCC(=O)O; βAla = NCCC(=O)O
recorded-metric: log10 EC50 (log10 of the value in nM)

1) CCCC[C@H](NC(C)=O)C(=O)N[C@H]1CSSC(C)(C)[C@@H](C(N)=O)NC(=O)CCCNC(=O)[C@H](Cc2c[nH]c3ccccc23)NC(=O)[C@H](CCCNC(=N)N)NC(=O)[C@@H](Cc2ccccc2)NC(=O)[C@H](Cc2c[nH]cn2)NC1=O (Ac-[Nle]CH[dF]RW[GABA][Pen]-NH2; disulfide 2-8) = -0.55
2) CC(=O)N[C@@H](CCCNC(=N)N)C(=O)N[C@H]1CSSC(C)(C)[C@@H](C(N)=O)NC(=O)CCCNC(=O)[C@H](Cc2c[nH]c3ccccc23)NC(=O)[C@H](CCCNC(=N)N)NC(=O)[C@@H](Cc2ccccc2)NC(=O)[C@H](Cc2c[nH]cn2)NC1=O (Ac-RCH[dF]RW[GABA][Pen]-NH2; disulfide 2-8 (inferred)) = 0.63
3) CCOc1ccc(C[C@H]2NC(=O)[C@H](Cc3c[nH]cn3)NC(=O)[C@@H](NC(=O)[C@H](N)Cc3ccccc3)CSSC[C@H](C(=O)N[C@H](C(N)=O)[C@@H](C)O)NC(=O)CCNC(=O)[C@H](Cc3c[nH]c4ccccc34)NC(=O)[C@H](CCCCNC(=N)N)NC2=O)cc1 (H-[dF]CH[dY](Et)[hArg]W[βAla][dC]T-NH2; disulfide 2-8) = -0.46
4) CC(=O)N[C@@H](CCC1CCCCC1)C(=O)N[C@H]1CC(=O)NCCCC[C@@H](C(N)=O)NC(=O)CCCNC(=O)[C@H](Cc2c[nH]c3ccccc23)NC(=O)[C@H](CCCNC(=N)N)NC(=O)[C@@H](Cc2ccccc2)NC(=O)[C@H](Cc2c[nH]cn2)NC1=O = 0.36
5) CCCC[C@H](NC(C)=O)C(=O)N[C@H]1CSSC[C@@H](C(N)=O)NC(=O)CCCCNC(=O)[C@H](Cc2c[nH]c3ccccc23)NC(=O)[C@H](CCCNC(=N)N)NC(=O)[C@@H](Cc2ccccc2)NC(=O)[C@H](Cc2c[nH]cn2)NC1=O (Ac-[Nle]CH[dF]RW[Ava]C-NH2; disulfide 2-8) = -0.12
6) CCCC[C@H](NC(C)=O)C(=O)N[C@H]1CSSC[C@@H](C(N)=O)NC(=O)[C@H](Cc2c[nH]c3ccccc23)NC(=O)[C@H](CCCNC(=N)N)NC(=O)[C@@H](Cc2ccccc2)NC(=O)[C@H](Cc2c[nH]cn2)NC(=O)[C@@H](CC2CCCCC2)NC1=O = -0.09
7) CC(=O)N[C@@H](CC1CCCCC1)C(=O)N[C@H]1CC(=O)NCCCC[C@@H](C(N)=O)NC(=O)CCCNC(=O)[C@H](Cc2c[nH]c3ccccc23)NC(=O)[C@H](CCCNC(=N)N)NC(=O)[C@@H](Cc2ccccc2)NC(=O)[C@H](Cc2c[nH]cn2)NC1=O = 0.51
